Origin of the recorded values: patent US20020077317A1

Tested on: tumor cells
Test: PUFA potentiation of anti-cancer drugs in tumor cells
Type: cell-based
Details: fatty acid added to anti-cancer drug
assay metric: cytotoxic action of doxorubicin, vincristine and cis-platinum

Some molecules with known cytotoxic action of doxorubicin, vincristine and cis-platinum results, for comparison:
smiles representation | observed value
CC/C=C\C/C=C\C/C=C\C/C=C\C/C=C\C/C=C\CCC(=O)O | can be augmented
CCCCC/C=C\C/C=C\C/C=C\CCCCC(=O)O | can be augmented
CCCCC/C=C\C/C=C\C/C=C\C/C=C\CCCC(=O)O | can be augmented
CC/C=C\C/C=C\C/C=C\C/C=C\C/C=C\CCCC(=O)O | can be augmented

# input for lookup
Fill in: cytotoxic action of doxorubicin, vincristine and cis-platinum of CCCCC/C=C\C/C=C\C/C=C\CCCCCCC(=O)O is ___
can be augmented
